Data credit: the supplement of paper PMC10567573

Test: protein stability index of a GFP-peptide fusion (GPS, HEK-293T) (PSI 1-6); higher = more stable;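 also: 24-mer peptide tiles fused after GFP, lentivirally expressed, FACS-sorted into six equal bins by GFP/DsRed ratio, decoded by Illumina sequencing, PSI is the read-weighted mean bin number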
Settings: treatment: DMSO; c terminus: a fixed tail appended
Use 4 as the dividing line for protein stability index, with the line itself on the 1 side and lower values as 0.

{"columns": ["item.sequence", "assigned.category"],
 "data": [
  ["SAPQQNGQPLRPLVPDASKQRLME [PDLIM7]", 1],
  ["TPLHVAAFLGDAEIIELLILSGAR [ANKRD44]", 0],
  ["HARLRLSADRLTVRCGLLGSLGPV [TRIM14]", 0],
  ["MRDLYMKNGQGFALVYSITAQSTF [RAP1B]", 0],
  ["AQLYTLWVTFQVLLYTSLPDFCHK [DHCR7]", 0],
  ["MSGDGATEQAAEYVPEKVKKAEKK [CSTF3]", 1],
  ["KEFILTDEEVQRKREMILKRKEEE [VDR]", 1],
  ["WLHALHLRQKGNRNTHKDLLRFAQ [FEM1B]", 0],
  ["VPDSDIKALTTLCDLADRELVVII [ESRRG]", 0],
  ["MAAMETETAPLTLESLPTDPLLLI [FBXO3]", 0],
  ["PLFEDVQMLRKTVKDEAHQAQKDP [PPP2R5C]", 1],
  ["LSIRCQHQEQVEDLTASHDAALLE [MTUS2]", 1],
  ["LQASDRYRDLAGGTGRSAKEQVLR [FCHSD1]", 1],
  ["NSHLTSVPHWINSNTLGFGTEQAP [ETS2]", 0],
  ["EKEYKTYKENFLKRFQLTKLPPYL [USP39]", 0],
  ["EEEEAAMYEEEMEREEITTKKRKL [FAM50A]", 1]
]}
